So I've got a bunch of compounds here, and I need their T/C values.
tested on: P388 leukemia ip, CD2F1 mice, survival T/C; assay: NCI In Vivo Anticancer Drug Screen. Data for tumor model P388 Leukemia (intraperitoneal) in CD2F1 (CDF1) mice; conditions: endpoint: median survival time; dose: 100.0 mg/kg/injection; schedule: Q04DX002 (ip); vehicle: saline; higher = longer survival
Toxic doses and inconclusive results are not listed.

Some solved entries appear below for comparison.
{"columns": ["compound", "measurementLabel", "result"],
 "data": [
  ["O=[N+]([O-])c1ccc2c(c1)SC1=NN3C(O)COC(OCc4ccccc4)C3N12 (centres undefined)", "T/C", "97 % of control"],
  ["Cc1ccc(S(=O)(O)=S)cc1", "T/C", "105 % of control"],
  ["O=C(O)C(S)Cc1cnc[nH]1 (centres undefined)", "T/C", "99 % of control"]
]}

Moving on to another compound below.
Task: For the compound O=[N+]([O-])Nc1ccccn1 , report T/C.
Output: 114 % of control

====

So I've got a bunch of compounds here, and I need their T/C values.
tested on: P388 leukemia ip, CD2F1 mice, survival T/C; assay: NCI In Vivo Anticancer Drug Screen. Data for tumor model P388 Leukemia (intraperitoneal) in CD2F1 (CDF1) mice; settings: endpoint: median survival time; dose: 12.5 mg/kg/injection; schedule: Q01DX009 (ip); vehicle: saline; higher = longer survival
Toxic doses and inconclusive results are not listed.

Some solved entries appear below for comparison.
{"columns": ["compound", "testSystem", "measurementLabel", "result"],
 "data": [
  ["C=CC(=NC(C)(C)C)Nc1ccccc1C(=O)OC", "P388 leukemia ip, CD2F1 mice, survival T/C", "T/C", "108 % of control"],
  ["COc1ccc(Oc2cc3c[n+](C)ccc3cc2OC)cc1", "P388 leukemia ip, CD2F1 mice, survival T/C", "T/C", "111 % of control"],
  ["C/C=C/C=C\\C(=O)O", "P388 leukemia ip, CD2F1 mice, survival T/C", "T/C", "93 % of control"]
]}

Below are 8 compounds. Give each one its T/C.
1. CC1=C2C(=CO[C@H](C)[C@H]2C)C(=O)C(C(=O)O)=C1O
2. COCC1OC(OC2OCC3OC4(OCC(O)(C(C)OC)C5OCOC54)OC3C2OC)C(OC)C(O)C1OC1OC(C)C(OC)C(OC2OC(C)C3OC4(CC(O)C(OC5CC(OC6CC(C)([N+](=O)[O-])C(OC)C(C)O6)C(OC(=O)c6c(C)c(Cl)c(O)c(Cl)c6OC)C(C)O5)C(C)O4)OC3(C)C2O)C1O (stereo unspecified)
3. c1cc(C2N3CCCN2CC3)ccn1 (stereo unspecified)
4. CCCCNP(=O)(N1CC1C)N1CC1C (stereo unspecified)
5. O=c1cncc[nH]1
6. FC(F)(F)c1ccccc1NC(=S)SCc1ccc2c(c1)OCO2
7. O=S1(=O)OC2(c3ccccc31)c1cc(Br)c(O)c(O)c1Oc1c2cc(Br)c(O)c1O
8. CCC(=O)NC(C)C(=O)O (stereo unspecified)

Output:
1: 115 % of control; 2: 118 % of control; 3: 103 % of control; 4: 120 % of control; 5: 105 % of control; 6: 97 % of control; 7: 105 % of control; 8: 88 % of control

====

test system: P388 leukemia ip, CD2F1 mice, survival T/C; assay: NCI In Vivo Anticancer Drug Screen. Data for tumor model P388 Leukemia (intraperitoneal) in CD2F1 (CDF1) mice; settings: endpoint: median survival time; dose: 120.0 mg/kg/injection; schedule: Q01DX005 (ip); vehicle: saline with Tween-80; higher = longer survival
Toxic doses and inconclusive results are not listed.
measurementLabel: T/C

{"columns": ["compound", "T/C"],
 "data": [
  ["Cc1cc(=O)oc2c1ccc1occc(=O)c12", "102 % of control"],
  ["CC(C(=O)c1ccc(Cl)cc1)C1=NC2NN(c3ccccc3)C(=O)C2=C1C(C)C(=O)c1ccc(Cl)cc1 (centres undefined)", "101 % of control"],
  ["CCOC(=O)C1=C(Nc2ccc(Cl)cc2)C(=O)N(C(C)(C)C)C1", "108 % of control"],
  ["N#Cc1nnn2c1nc(N)c1c(Cl)cccc12", "100 % of control"]
]}

Below are 5 compounds. Give each one its T/C.
1. CC1CCC2(CC1)CC(=O)N(N)C2=O (centres undefined)
2. Nc1nc2c(C(=O)N3CCCC3)nnn2c2cccc(Cl)c12
3. O=C(Cc1ccc([N+](=O)[O-])cc1)ON1C(=O)CCC1=O
4. O=C1C(c2ccccc2)=C(c2ccccc2)C(=O)N1CCN1CCCC1
5. COC1=CC(=O)N/C1=C(\OC)c1ccccc1

Output:
["105 % of control", "106 % of control", "114 % of control", "110 % of control", "93 % of control"]

====

Tested on: P388 leukemia ip, CD2F1 mice, survival T/C
Test: NCI In Vivo Anticancer Drug Screen. Data for tumor model P388 Leukemia (intraperitoneal) in CD2F1 (CDF1) mice
Settings: endpoint: median survival time; dose: 100.0 mg/kg/injection; schedule: Q01DX005 (ip); vehicle: Klucel (hydroxypropylcellulose) (HPC); higher = longer survival
Description: The antitumor activity of compounds was measured in mice bearing transplantable tumors. Survival or tumor size were measured and the results are expressed as the measurement made in the treated group (T) divided by the measurement made in the vehicle treated control group (C). The tumor model used in this assay is P388 Leukemia (intraperitoneal) in CD2F1 (CDF1) mice
Toxic doses and inconclusive results are not listed.
So I've got a bunch of compounds here, and I need their T/C values.

Some solved entries appear below for comparison.
{"columns": ["compound", "T/C"],
 "data": [
  ["CCN(CC)C(=S)C(C)=C(Sc1ccccc1)Sc1ccccc1", "99 % of control"],
  ["CC1=C(O)C(=O)C=C2C1=CC=C1[C@@]2(C)CCC2(C)[C@@H]3C[C@@H](C)C(=O)C[C@]3(C)CC[C@]12C (stereo partly specified)", "97 % of control"],
  ["COc1ccc(OC)c2cc3c(cc12)C(=O)c1ccccc1C3=O", "88 % of control"],
  ["Nc1nc(=O)nc2[nH]c3c4cccc5cccc(c3nc12)c54 (tested in a mixture with another compound)", "116 % of control"],
  ["O=S1(=O)c2cccc(c2)NC(=S)/C([n+]2ccccc2)=C(/[O-])c2ccc(cc2)CC2CCCCN21 (stereo unspecified)", "87 % of control"],
  ["CC(C)CCC1(CCCl)C(=O)NC(=O)NC1=O", "106 % of control"],
  ["C=C(Br)C(=NC(C)(C)C)Nc1cccc(Cl)c1", "107 % of control"],
  ["Cc1cc(Cl)c2c(c1N)C(=O)c1ccccc1C2=O", "96 % of control"]
]}

Below are 3 compounds. Give each one its T/C.
1. CCOc1cc2c(cc1C(CC)c1ccccc1)OCO2 (stereo unspecified)
2. CSc1ncn(C)c1C(N)=O
3. CC(=O)OC1C(C)C2CCC13CC=C(C)CC23 (stereo unspecified)

Output:
96 % of control
99 % of control
108 % of control

====

So I've got a bunch of compounds here, and I need their T/C values.
test system: P388 leukemia ip, CD2F1 mice, survival T/C; assay: NCI In Vivo Anticancer Drug Screen. Data for tumor model P388 Leukemia (intraperitoneal) in CD2F1 (CDF1) mice; settings: endpoint: median survival time; dose: 12.5 mg/kg/injection; schedule: Q01DX005 (ip); vehicle: saline; higher = longer survival
Toxic doses and inconclusive results are not listed.

{"columns": ["compound", "testSystem", "T/C"],
 "data": [
  ["CCCCCN(CCCCC)CCCNc1c2c(nc3ccc(Cl)cc13)CCCC2", "P388 leukemia ip, CD2F1 mice, survival T/C", "95 % of control"]
]}

Below are 3 compounds. Give each one its T/C.
1. N=C(N)c1ccc(OCCCOc2ccc(C(=N)N)cc2)cc1
2. CCCCCN(CCNc1cc(OC)cc2cccnc12)C(C)CC (centres undefined)
3. CCCCCC(CN(C)C)C(=O)/C=C/c1ccc(Br)cc1 (centres undefined)

Output:
1: 117 % of control; 2: 112 % of control; 3: 110 % of control

====

So I've got a bunch of compounds here, and I need their T/C values.
test system: P388 leukemia ip, CD2F1 mice, survival T/C; test: NCI In Vivo Anticancer Drug Screen. Data for tumor model P388 Leukemia (intraperitoneal) in CD2F1 (CDF1) mice; conditions: endpoint: median survival time; dose: 60.0 mg/kg/injection; schedule: Q01DX005 (ip); vehicle: saline with Tween-80; higher = longer survival
Toxic doses and inconclusive results are not listed.

Below are 6 compounds. Give each one its T/C.
1. O=C(O)C(Oc1nc(=S)[nH]c(=S)[nH]1)(c1ccc(Cl)cc1)c1ccc(Cl)cc1
2. CSc1nc(NC2OC(CO)C(O)C(O)C2O)c(C=O)c(=O)[nH]1 (centres undefined)
3. Cc1cc(N=Cc2c(CO)cnc(C)c2O)c(N=Cc2c(CO)cnc(C)c2O)cc1C
4. CN(C)CCCN1c2ccccc2CCc2ccccc21
5. Clc1ccc(COCc2ccccc2Cn2ccnc2)cc1
6. CN1C(=O)N(C)C2(C(=O)N(C)C(=S)N2C)N(C)C1=O

Output:
1. 103 % of control
2. 92 % of control
3. 93 % of control
4. 115 % of control
5. 95 % of control
6. 95 % of control

Below are 5 compounds. Give each one its T/C.
1. O=C(O)c1cc2c([nH]1)-c1cccnc1C(=O)C2=O
2. O=C1CCC(Cc2ccc(Br)cc2)C(=O)N1 (centres undefined)
3. CC1=CC(C)(C)NN1C1=NS(=O)(=O)c2ccccc2N1C
4. COC(=O)c1nc(=S)[nH]c(C(=O)OC)c1C(=O)c1cc(Cl)ccc1Cl
5. Cn1c(=S)[nH]c2scc(-c3ccccc3)c2c1=O

Output:
1: 101 % of control; 2: 104 % of control; 3: 101 % of control; 4: 96 % of control; 5: 87 % of control

Below are 4 compounds. Give each one its T/C.
1. COc1ccc(C(=O)CCc2c[nH]c3ccccc23)c(O)c1
2. CCCCCCCCSC(=O)n1cc(F)c(=O)[nH]c1=O
3. CCOc1cc2c(cc1C/C=C/c1ccc(OC)cc1)OCO2
4. CSc1c(N(C)C)c(=O)c1=S

Output:
101 % of control
120 % of control
103 % of control
107 % of control
